test: cytotoxicity in MT-4 cells (MTT, culture medium in place of HIV); format: cell-based; details: human; MT-4 cells, no virus, 37° C., 5 days, MTT; Table 3; read-out: CC50
QUANTITY MEASURED: CC50 at 120 h

molecule=CNC(=S)NCc1nc(C(C)C)c(Sc2cc(Cl)cc(Cl)c2)n1C value_reported="1 to 10 µg/mL"
molecule=CC(C)c1nc(CCOC(N)=O)n(C)c1Sc1cc(Cl)cc(Cl)c1 value_reported="10 to 100 µg/mL"
molecule=Cc1nc(C(C)C)c(Sc2cccc(Cl)c2)n1C value_reported="12.5 µg/mL"
molecule="CC(C#N)c1nc(COC(N)=O)n(C)c1Sc1cccc(Cl)c1 (stereo not drawn)" value_reported="10 to 100 µg/mL"
molecule=CC(C)c1nc(CO)[nH]c1S(=O)(=O)c1cc(Cl)cc(Cl)c1 value_reported="10 to 100 µg/mL"
molecule=CCc1nc(C)n(C)c1Sc1cc(C)cc(C)c1 value_reported="1 to 10 µg/mL"
molecule=CCn1c(COC(N)=O)nc(C(C)C)c1Sc1cccc(Cl)c1 value_reported="10 to 100 µg/mL"
molecule=CC(C)c1nc(CO)n(Cc2ccccc2)c1Sc1cc(Cl)cc(Cl)c1 value_reported="12.5 to 25 µg/mL"
molecule="CC(C)c1nc(CN)n(C)c1Sc1cc(Cl)cc(Cl)c1.O=C(O)C(=O)O [Compound I-66, oxalate]" value_reported="6.3 to 12.5 µg/mL"

###

# CC50 at 120 h values compiled below
assay: cytotoxicity in MT-4 cells (MTT, culture medium in place of HIV); format: cell-based; conditions: human; MT-4 cells, no virus, 37° C., 5 days, MTT; Table 3; read-out: CC50
QUANTITY MEASURED: CC50 at 120 h

compound=Cc1cc(C)cc(Sc2c(C(C)C)nc(C)n2Cc2ccccc2)c1 value_reported="12.5 mg/L"
compound=CCn1c(CO)nc(C(C)C)c1Sc1cc(Cl)cc(Cl)c1 value_reported="10 to 100 mg/L"
compound=CC(C)c1nc(CN)n(C)c1Sc1cccc([N+](=O)[O-])c1 value_reported="12.5 to 25 mg/L"
compound=CC(C)c1nc(CN)n(Cc2ccncc2)c1Sc1cc(Cl)cc(Cl)c1 value_reported="6.3 to 12.5 mg/L"
compound=CNC(=S)OCc1nc(C(C)C)c(Sc2cc(Cl)cc(Cl)c2)n1C value_reported="1 to 10 mg/L"
compound=CC(C)c1nc(COC(N)=O)n(Cc2ccccn2)c1Sc1cc(Cl)cc(Cl)c1 value_reported="12.5 mg/L"
compound=CNCc1nc(C(C)C)c(Sc2cc(Cl)cc(Cl)c2)n1C value_reported="1 to 10 mg/L"
compound=CCCn1c(COC(N)=O)nc(C(C)C)c1Sc1cc(Cl)cc(Cl)c1 value_reported="6.3 to 12.5 mg/L"
compound="CC(C)c1nc(COC(N)=O)n(C)c1[S+]([O-])c1cc(Cl)cc(Cl)c1 (stereo not shown)" value_reported="10 to 100 mg/L"
compound=CCn1c(COC(N)=O)nc(C(C)C)c1Sc1cccc(F)c1 value_reported="25 to 50 mg/L"
compound=CCn1c(COC(N)=O)nc(C(C)C)c1Sc1cccc([N+](=O)[O-])c1 value_reported="25 mg/L"
compound=CCn1c(CO)nc(C(C)C)c1Sc1cccc(Cl)c1 value_reported="12.5 mg/L"
compound=CC(C)c1nc(CO)n(Cc2ccccc2)c1Sc1cccc(Cl)c1 value_reported="6.3 to 12.5 mg/L"
compound=Cc1cc(C)cc(S(=O)(=O)c2c(C(C)C)nc(C)n2C)c1 value_reported="50 to 100 mg/L"
compound=CC(C)c1nc(CN)n(C)c1S(=O)(=O)c1cc(Cl)cc(Cl)c1 value_reported="1 to 10 mg/L"
compound="CC(C)c1nc(CO)n(C)c1[S+]([O-])c1cc(Cl)cc(Cl)c1 (stereo not shown)" value_reported="10 to 100 mg/L"
compound=CC(C)C(=O)c1nc(C(C)C)c(Sc2cc(Cl)cc(Cl)c2)n1C value_reported="50 to 100 mg/L"
compound=CC(C)c1nc(COC(N)=O)n(CF)c1Sc1cc(Cl)cc(Cl)c1 value_reported="10 to 100 mg/L"
compound=CC(=N)NCc1nc(C(C)C)c(Sc2cc(Cl)cc(Cl)c2)n1C value_reported="1 to 10 mg/L"
compound=CC(C)c1c(Sc2cccc(Cl)c2)nc(COC(N)=O)n1C value_reported="12.5 to 25 mg/L"
compound=CCCn1c(CO)nc(C(C)C)c1Sc1cccc([N+](=O)[O-])c1 value_reported="25 mg/L"
compound=CC(C)c1nc(CN)n(Cc2cccnc2)c1Sc1cc(Cl)cc(Cl)c1 value_reported="12.5 to 25 mg/L"
compound="Cc1cc(C)cc([S+]([O-])c2c(C(C)C)nc(C)n2C)c1 (stereo not shown)" value_reported="10 to 100 mg/L"
compound=CNC(=O)OCc1nc(C(C)C)c(Sc2cc(Cl)cc(Cl)c2)n1C value_reported="1 to 10 mg/L"
compound=CC(C)c1nc(CNCCO)n(C)c1Sc1cc(Cl)cc(Cl)c1 value_reported="1 to 10 mg/L"
compound=CC(=O)OCCOCc1nc(Sc2cc(Cl)cc(Cl)c2)c(C(C)C)n1C value_reported="12.5 to 25 mg/L"
compound=Cc1nc(C(C)C)c(Cc2cc(Cl)cc(Cl)c2)n1C value_reported="12.5 mg/L"
compound=CC(C)c1nc(CO)n(C)c1Sc1cccc(Cl)c1 value_reported="25 mg/L"
compound=CC(C)c1nc(CO)n(CC(F)(F)F)c1Sc1cc(Cl)cc(Cl)c1 value_reported="10 to 100 mg/L"
compound=CC(C)c1nc(CNC(N)=O)n(C)c1Sc1cc(Cl)cc(Cl)c1 value_reported="10 to 100 mg/L"
compound="Cc1nc(C(C)C(=O)O)c(Sc2cccc(Cl)c2)n1C (stereo not shown)" value_reported="> 100 mg/L"
compound=CC(C)c1nc(CN)n(C)c1Cc1cc(Cl)cc(Cl)c1 value_reported="10 to 100 mg/L"
compound=CC(C)c1nc(CO)n(C)c1S(=O)(=O)c1cc(Cl)cc(Cl)c1 value_reported="> 100 mg/L"
compound=Cc1cc(C)cc(Sc2c(C(C)C)nc(CO)n2C)c1 value_reported="10 mg/L"
compound=CC(C)c1nc(COC(N)=O)n(Cc2ccncc2)c1Sc1cc(Cl)cc(Cl)c1 value_reported="10 to 100 mg/L"
compound=C=CCn1c(CO)nc(C(C)C)c1Sc1cccc(Cl)c1 value_reported="6.3 to 12.5 mg/L"
compound=CC(=O)OCCOCc1nc(C(C)C)c(Sc2cc(Cl)cc(Cl)c2)n1C value_reported="12.5 to 25 mg/L"

###

molecular target: purified recombinant HIV-1 reverse transcriptase (Human immunodeficiency virus type 1 group M subtype B); construct: purified recombinant HIV-1 reverse transcriptase; made in house; host or cells: Escherichia coli; assay: reverse transcriptase inhibition, poly(rA)/(dT) template primer, [3H]dTTP uptake; format: biochemical
QUANTITY MEASURED: IC50 (nM)

compound=CCn1c(COC(N)=O)nc(C(C)C)c1Sc1cc(Cl)cc(Cl)c1 quantity_measured=IC50 cmp== value_reported=464
compound=CC(C)c1nc(COC(N)=O)n(CCOC(N)=O)c1Sc1cc(Cl)cc(Cl)c1 quantity_measured=IC50 cmp== value_reported=1540
compound=CC(C)c1nc(COC(N)=O)n(Cc2ccccc2)c1Sc1cc(Cl)cc(Cl)c1 quantity_measured=IC50 cmp== value_reported=1440
compound="CC(C)c1nc(CCO)n(Cc2ccncc2)c1Sc1cc(Cl)cc(Cl)c1 [Compound 123b]" quantity_measured=IC50 cmp== value_reported=355
compound="Cc1ncccc1Cn1c(CO)nc(C(C)C)c1Sc1cc(Cl)cc(Cl)c1 [Compound 119a]" quantity_measured=IC50 cmp== value_reported=14700
compound=C=CCn1c(CO)nc(C(C)C)c1Sc1cccc(Cl)c1 quantity_measured=IC50 cmp=< value_reported=2480
compound="CC(C)c1nc(CCCOCc2ccccc2)n(CCO)c1Sc1cc(Cl)cc(Cl)c1 [Compound 136e]" quantity_measured=IC50 cmp=> value_reported=209000
compound=C=CCn1c(CO)nc(C(C)C)c1Sc1cccc([N+](=O)[O-])c1 quantity_measured=IC50 cmp== value_reported=1680
compound=CNCc1nc(C(C)C)c(Sc2cc(Cl)cc(Cl)c2)n1C quantity_measured=IC50 cmp== value_reported=7550

###

Entries and their CC50 at 120 h values follow.
Test: cytotoxicity in MT-4 cells (MTT, culture medium in place of HIV)
Type: cell-based
Conditions: human; MT-4 cells, no virus, 37° C., 5 days, MTT; Table 3; read-out: CC50
Protocol: The anti-HIV activity of each of the compounds produced in Examples was assayed by the following procedures. (1) Human T cell line MOLT-4 clone 8 persistently infected by HIV (HTLV-IIIB strain) was cultured in an RPMI-1640 medium supplemented with 10% fetal calf serum, the culture supernatant was filtered, and the titer of virus was determined; the culture supernatant was stored at -80° C. […]
QUANTITY MEASURED: CC50 at 120 h (µg/mL)

compound=CCn1c(COCCOC(N)=O)nc(C(C)C)c1Sc1cc(Cl)cc(Cl)c1 cmp== value_reported=12.5
compound="Cc1cc(C)cc([S+]([O-])c2c(C(C)C)nc(CO)n2C)c1 (stereo not shown)" cmp== value_reported=100
compound=CC(C)c1nc(CO)n(CC(=O)c2ccccc2)c1Sc1cc(Cl)cc(Cl)c1 cmp== value_reported=100
compound=Cc1cc(C)cc(Sc2c(C(C)C)nc(C=O)n2C)c1 cmp== value_reported=10
compound=CCCn1c(COC(N)=O)nc(C(C)C)c1Sc1cccc([N+](=O)[O-])c1 cmp=> value_reported=100
compound=CC(C)c1nc(COC(N)=O)n(Cc2ccccc2)c1Sc1cc(Cl)cc(Cl)c1 cmp== value_reported=12.5
compound="CC(C)c1nc(CC#N)n(C)c1Sc1cc(Cl)cc(Cl)c1 [Compound I-80a]" cmp== value_reported=100
compound=Cc1cc(C)cc(Sc2c(C(C)C)nc(C)n2C)c1 cmp== value_reported=25
compound=C=CCn1c(CO)nc(C(C)C)c1Sc1cccc([N+](=O)[O-])c1 cmp== value_reported=25

// provenance: patent US6147097A
